Tested on: MSCs
Assay: High throughput factorial screening with Linear Mixed Effects statistical analysis of recovery
Assay type: cell-based, human
Details: statistical analysis
Protocol: In another evaluation, cells were combined with factorial combinations of the components listed in Table 5, using one component from each category. […] Recovery was calculated by dividing the number of live cells post thaw—calculated using a control curve correlating calcein-acetoxymethyl (AM) fluorescence to cell count—by the number of live cells seeded pre-freeze (AO/PI counts taken prior to freezing). […]
Readout kind: correlation with recovery

Worked examples follow.
OC[C@@H](O)[C@@H](O)[C@@H](O)CO negatively correlated
OC[C@@H](O)[C@@H](O)CO negatively correlated
OCC(O)CO positively correlated
CC(C)[C@H](N)C(=O)O negatively correlated
OC[C@@H](O)[C@@H](O)[C@H](O)[C@@H](O)CO positively correlated

Switching to the query record.
So for O=C(O)[C@@H]1CCCN1 , the logged correlation with recovery turned out to be negatively correlated
